Where these numbers come from: patent US8637536B2

Biological target: recombinant human Lp-PLA2 (Homo sapiens, UniProt Q13093)
Sequence (Q13093 22-441): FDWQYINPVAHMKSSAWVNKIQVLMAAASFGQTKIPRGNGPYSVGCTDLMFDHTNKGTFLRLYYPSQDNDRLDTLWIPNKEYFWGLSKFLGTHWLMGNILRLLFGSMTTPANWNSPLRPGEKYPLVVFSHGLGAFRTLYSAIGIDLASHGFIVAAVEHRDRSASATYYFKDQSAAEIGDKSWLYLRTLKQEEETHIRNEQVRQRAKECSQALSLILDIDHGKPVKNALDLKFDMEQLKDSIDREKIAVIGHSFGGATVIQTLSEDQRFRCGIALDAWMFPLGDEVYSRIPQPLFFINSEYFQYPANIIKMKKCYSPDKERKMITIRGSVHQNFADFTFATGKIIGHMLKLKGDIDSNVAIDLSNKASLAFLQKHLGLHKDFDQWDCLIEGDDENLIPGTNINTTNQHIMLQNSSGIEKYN
Experiment: Recombinant human Lp-PLA2 assay (rhLp-PLA2, PED6 assay)
Assay type: biochemical
Settings: text thresholds; upper limit for pIC50 in this assay is 9.3; read-out: pIC50 values in the PED6 assay (converted)
Excerpt: (1) Recombinant Human Lp-PLA2 Assay (rhLp-PLA2) (Also Referred to as “PED6” Assay) N-((6-(2,4-dinitrophenyl)amino)-hexanoyl)-2-(4,4-difluoro-5,7-dimethyl-4-bora-3a,4a-diaza-s-indacene-3-pentanoyl)-1-hexadecanoyl-sn-glycero-3-phosphoethanolamine, triethylammonium salt (PED6) is a commercially available fluorescently-labelled phospholipid, which is commercially available from Molecular Probes. […]
Where a name gives a salt, the structure may show the parent alone.
endpoint.name: IC50

Req: Lab request: please report IC50 under test system recombinant human Lp-PLA2 (Homo sapiens, UniProt Q13093) for COc1ncc(Cc2c[nH]c(NCCc3ccc(Oc4ccc(C(F)(F)F)c(Cl)c4)cc3)nc2=O)cn1 [E206]
Resp: ≤ 10 nM

Req: What value of IC50 on recombinant human Lp-PLA2 (Homo sapiens, UniProt Q13093) does COc1ncc(Cc2c[nH]c(SCc3ccc(Oc4ccc(F)cc4)cc3)nc2=O)cn1 [E52] have?
Resp: ≤ 10 nM

Req: Field: IC50 (recombinant human Lp-PLA2 (Homo sapiens, UniProt Q13093)). Entry: N#Cc1cc(CCSc2nc(=O)c(Cc3cncnc3)c[nH]2)ccc1Oc1ccc(Cl)c(C(F)(F)F)c1 [E118]
Resp: ≤ 1 nM

Req: Param readout= IC50; system= recombinant human Lp-PLA2 (Homo sapiens, UniProt Q13093); entry= COc1ncc(Cc2cn(C)c(SCc3ccc(Oc4ccc(F)cc4)cc3)nc2=O)cn1 [E53] ; returns value.
Resp: ≤ 10 nM

Req: Can you look up IC50 on recombinant human Lp-PLA2 (Homo sapiens, UniProt Q13093) for O=c1nc(NCCc2ccc(Oc3ccc(Cl)c(C(F)(F)F)c3)cc2)[nH]cc1Cc1cncnc1 [E11] ?
Resp: ≤ 1 nM

Req: Which measured IC50 belongs to COc1ncc(Cc2cn(C)c(SCc3ccc(Oc4ccc(Cl)c(C(F)(F)F)c4)c(C#N)c3)nc2=O)cn1 [E85] , tested on recombinant human Lp-PLA2 (Homo sapiens, UniProt Q13093)?
Resp: ≤ 1 nM

Req: # returns recorded IC50 (system: recombinant human Lp-PLA2 (Homo sapiens, UniProt Q13093)) for COc1ncc(Cc2c[nH]c(OCCc3ccc(Oc4ccc(Cl)c(C(F)(F)F)c4)c(F)c3)nc2=O)cn1 [E172]
Resp: ≤ 1 nM

Req: Observed IC50 on recombinant human Lp-PLA2 (Homo sapiens, UniProt Q13093) for N#Cc1cc(CCNc2nc(=O)c(Cc3cncnc3)c[nH]2)ccc1Oc1ccc(C(F)(F)F)cn1 [E205] , please.
Resp: ≤ 10 nM

Req: Item COc1ncc(Cc2c[nH]c(OCCc3ccc(Oc4ccc(C(F)(F)F)cn4)cc3)nc2=O)cn1 [E137] with recombinant human Lp-PLA2 (Homo sapiens, UniProt Q13093) - IC50?
Resp: ≤ 10 nM

Req: Param readout= IC50; system= recombinant human Lp-PLA2 (Homo sapiens, UniProt Q13093); entry= Cn1cc(Cc2cncnc2)c(=O)nc1SCCc1ccc(Oc2ccc(Cl)c(C(F)(F)F)c2)cc1 [E116] ; returns value.
Resp: ≤ 1 nM

Req: Could you share what IC50 was measured for COc1ncc(Cc2cn(C)c(OCCc3ccc(Oc4ccc(Cl)c(C(F)(F)F)c4)cc3)nc2=O)cn1 [E25] , tested on recombinant human Lp-PLA2 (Homo sapiens, UniProt Q13093)?
Resp: ≤ 1 nM

Req: Recall the recorded IC50 for Cn1cc(Cc2cn(C)c(SCc3ccc(Oc4cc(Cl)ccn4)cc3)nc2=O)cn1 [E93] with recombinant human Lp-PLA2 (Homo sapiens, UniProt Q13093) and state it.
Resp: ≤ 1 nM

Req: Param readout= IC50; system= recombinant human Lp-PLA2 (Homo sapiens, UniProt Q13093); entry= COc1ncc(Cc2c[nH]c(SCc3ccc(Oc4ccc(F)c(C(F)(F)F)c4)c(C#N)c3)nc2=O)cn1 [E89] ; returns value.
Resp: ≤ 1 nM

Req: What value of IC50 on recombinant human Lp-PLA2 (Homo sapiens, UniProt Q13093) does COc1ncc(Cc2c[nH]c(SCCc3ccc(Oc4ccc(Cl)c(C(F)(F)F)c4)c(C#N)c3)nc2=O)cn1 [E119] have?
Resp: ≤ 1 nM

Req: // fetch recombinant human Lp-PLA2 (Homo sapiens, UniProt Q13093) IC50 for CN(CCc1ccc(Oc2ccc(Cl)c(C(F)(F)F)c2)cc1)c1nc(=O)c(Cc2cncnc2)cn1C [E196]
Resp: ≤ 10 nM

Req: Lab note: need IC50 for Cn1cc(Cc2cn(C)c(SCc3ccc(Oc4cccc(C(F)(F)F)c4)c(C#N)c3)nc2=O)cn1 [E95, trifluoroacetic acid salt] on recombinant human Lp-PLA2 (Homo sapiens, UniProt Q13093), anyone have it?
Resp: ≤ 1 nM
